test: Preliminary pharmacokinetics in trial 1403-0001 (Arm A D1 q3w, Arm B D1 D8 q4w); type: in vivo, human; conditions: human, plasma, oral, 50 mg, Arm A D1 q3w, 50 mg, N=4; read-out: t1/2 (gMean) (converted)
Quantity Measured: half-life
Quote the value and follow it with the unit of measurement.

Tell us which half-life value is on record for Cc1c(C(=O)O)ccc2c3n(nc12)[C@@H]1[C@H](C3)N(CC2CC2)[C@@]2(C(=O)Nc3cc(Cl)ccc32)[C@H]1c1cccc(Cl)c1F [MDM2-antagonist of formula I] 60.9 h

----------
experiment: Preliminary pharmacokinetics in trial 1403-0001 (Arm A D1 q3w, Arm B D1 D8 q4w); type: in vivo, human; details: human, plasma, oral, 10 mg, Day 1, D1 D8 q4w (Arm B), gMean, N=3; read-out: AUC0-∞
Quantity Measured: AUC(0-inf) (µM·h)
# value in µM·h; strip the unit string

Tell us which AUC(0-inf) value is on record for Cc1c(C(=O)O)ccc2c3n(nc12)[C@@H]1[C@H](C3)N(CC2CC2)[C@@]2(C(=O)Nc3cc(Cl)ccc32)[C@H]1c1cccc(Cl)c1F 52.3

----------
test: Preliminary pharmacokinetics in trial 1403-0001 (Arm A D1 q3w, Arm B D1 D8 q4w); assay type: in vivo, human; conditions: human, plasma, oral, 30 mg, Day 8, D1 D8 q4w (Arm B), median, N=3; read-out: tmax
Quantity Measured: Tmax (h)
# value in h; strip the unit string

Tell us which Tmax value is on record for Cc1c(C(=O)O)ccc2c3n(nc12)[C@@H]1[C@H](C3)N(CC2CC2)[C@@]2(C(=O)Nc3cc(Cl)ccc32)[C@H]1c1cccc(Cl)c1F 4

----------
experiment: Preliminary pharmacokinetics in trial 1403-0001 (Arm A D1 q3w, Arm B D1 D8 q4w); assay type: in vivo, human; conditions: human, plasma, oral, 60 mg, Day 1, D1 D8 q4w (Arm B), gMean, N=2; read-out: t1/2 (converted)
Quantity Measured: half-life
Quote the value and follow it with the unit of measurement.

Tell us which half-life value is on record for Cc1c(C(=O)O)ccc2c3n(nc12)[C@@H]1[C@H](C3)N(CC2CC2)[C@@]2(C(=O)Nc3cc(Cl)ccc32)[C@H]1c1cccc(Cl)c1F 34.2 h

----------
experiment: Preliminary pharmacokinetics in trial 1403-0001 (Arm A D1 q3w, Arm B D1 D8 q4w); type: in vivo, human; conditions: human, plasma, oral, 10 mg, Day 8, D1 D8 q4w (Arm B), gMean, N=3; read-out: Vz/F
Quantity Measured: Vd/F

Tell us which Vd/F value is on record for Cc1c(C(=O)O)ccc2c3n(nc12)[C@@H]1[C@H](C3)N(CC2CC2)[C@@]2(C(=O)Nc3cc(Cl)ccc32)[C@H]1c1cccc(Cl)c1F 23.1 L

----------
experiment: Preliminary pharmacokinetics in trial 1403-0001 (Arm A D1 q3w, Arm B D1 D8 q4w); type: in vivo, human; details: human, plasma, oral, 30 mg, Arm A D1 q3w, 30 mg, N=3; read-out: Vz/F, gMean (gCV [%])
Quantity Measured: Vd/F (L)
# value in L; strip the unit string

Tell us which Vd/F value is on record for Cc1c(C(=O)O)ccc2c3n(nc12)[C@@H]1[C@H](C3)N(CC2CC2)[C@@]2(C(=O)Nc3cc(Cl)ccc32)[C@H]1c1cccc(Cl)c1F 23.6

----------
experiment: Preliminary pharmacokinetics in trial 1403-0001 (Arm A D1 q3w, Arm B D1 D8 q4w); assay type: in vivo, human; conditions: human, plasma, oral, 5 mg, Day 1, D1 D8 q4w (Arm B), median, N=3; read-out: tmax
Quantity Measured: Tmax (h)
# value in h; strip the unit string

Tell us which Tmax value is on record for Cc1c(C(=O)O)ccc2c3n(nc12)[C@@H]1[C@H](C3)N(CC2CC2)[C@@]2(C(=O)Nc3cc(Cl)ccc32)[C@H]1c1cccc(Cl)c1F 4

----------
assay: Preliminary pharmacokinetics in trial 1403-0001 (Arm A D1 q3w, Arm B D1 D8 q4w); type: in vivo, human; settings: human, plasma, oral, 30 mg, Arm A D1 q3w, 30 mg, N=3; read-out: AUC0-∞, gMean (gCV [%])
Quantity Measured: AUC(0-inf) (µM·h)
# value in µM·h; strip the unit string

Tell us which AUC(0-inf) value is on record for Cc1c(C(=O)O)ccc2c3n(nc12)[C@@H]1[C@H](C3)N(CC2CC2)[C@@]2(C(=O)Nc3cc(Cl)ccc32)[C@H]1c1cccc(Cl)c1F 113

----------
assay: Preliminary pharmacokinetics in trial 1403-0001 (Arm A D1 q3w, Arm B D1 D8 q4w); type: in vivo, human; conditions: human, plasma, oral, 20 mg, Day 1, D1 D8 q4w (Arm B), gMean, N=3; read-out: Cmax
Quantity Measured: Cmax

Tell us which Cmax value is on record for Cc1c(C(=O)O)ccc2c3n(nc12)[C@@H]1[C@H](C3)N(CC2CC2)[C@@]2(C(=O)Nc3cc(Cl)ccc32)[C@H]1c1cccc(Cl)c1F [MDM2-antagonist of formula I] 1370 nM

----------
experiment: Preliminary pharmacokinetics in trial 1403-0001 (Arm A D1 q3w, Arm B D1 D8 q4w); format: in vivo, human; details: human, plasma, oral, 30 mg, Day 1, D1 D8 q4w (Arm B), gMean, N=4; read-out: t1/2 (converted)
Quantity Measured: half-life
Quote the value and follow it with the unit of measurement.

Tell us which half-life value is on record for Cc1c(C(=O)O)ccc2c3n(nc12)[C@@H]1[C@H](C3)N(CC2CC2)[C@@]2(C(=O)Nc3cc(Cl)ccc32)[C@H]1c1cccc(Cl)c1F [MDM2-antagonist of formula I] 36.2 h

----------
experiment: Preliminary pharmacokinetics in trial 1403-0001 (Arm A D1 q3w, Arm B D1 D8 q4w); type: in vivo, human; details: human, plasma, oral, 50 mg, Arm A D1 q3w, 50 mg, N=4; read-out: Cmax (gMean)
Quantity Measured: Cmax (µM)
# value in µM; strip the unit string

Tell us which Cmax value is on record for Cc1c(C(=O)O)ccc2c3n(nc12)[C@@H]1[C@H](C3)N(CC2CC2)[C@@]2(C(=O)Nc3cc(Cl)ccc32)[C@H]1c1cccc(Cl)c1F 3.74

----------
test: Preliminary pharmacokinetics in trial 1403-0001 (Arm A D1 q3w, Arm B D1 D8 q4w); format: in vivo, human; conditions: human, plasma, oral, 10 mg, Day 8, D1 D8 q4w (Arm B), median, N=3; read-out: tmax
Quantity Measured: Tmax (h)
# value in h; strip the unit string

Tell us which Tmax value is on record for Cc1c(C(=O)O)ccc2c3n(nc12)[C@@H]1[C@H](C3)N(CC2CC2)[C@@]2(C(=O)Nc3cc(Cl)ccc32)[C@H]1c1cccc(Cl)c1F [MDM2-antagonist of formula I] 5

----------
experiment: Preliminary pharmacokinetics in trial 1403-0001 (Arm A D1 q3w, Arm B D1 D8 q4w); format: in vivo, human; settings: human, plasma, oral, 20 mg, Day 1, D1 D8 q4w (Arm B), gMean, N=3; read-out: AUC0-∞
Quantity Measured: AUC(0-inf) (µM·h)
# value in µM·h; strip the unit string

Tell us which AUC(0-inf) value is on record for Cc1c(C(=O)O)ccc2c3n(nc12)[C@@H]1[C@H](C3)N(CC2CC2)[C@@]2(C(=O)Nc3cc(Cl)ccc32)[C@H]1c1cccc(Cl)c1F [MDM2-antagonist of formula I] 88.9

----------
Test: Preliminary pharmacokinetics in trial 1403-0001 (Arm A D1 q3w, Arm B D1 D8 q4w)
Format: in vivo, human
Conditions: human, plasma, oral, 15 mg, Day 8, D1 D8 q4w (Arm B), gMean, N=2; read-out: t1/2 (converted)
From the text: Preliminary PK data were available from the first 45 treated patients in study 1403-0001. The exploratory PK analysis is based on planned blood sampling time-points and the results are subject to change because not all samples from these patients have been analyzed yet. Therefore, AUCs may be incomplete. […]
Quantity Measured: half-life (h)
# value in h; strip the unit string

Tell us which half-life value is on record for Cc1c(C(=O)O)ccc2c3n(nc12)[C@@H]1[C@H](C3)N(CC2CC2)[C@@]2(C(=O)Nc3cc(Cl)ccc32)[C@H]1c1cccc(Cl)c1F [MDM2-antagonist of formula I] 26.3

----------
assay: Preliminary pharmacokinetics in trial 1403-0001 (Arm A D1 q3w, Arm B D1 D8 q4w); assay type: in vivo, human; conditions: human, plasma, oral, 20 mg, Day 1, D1 D8 q4w (Arm B), gMean, N=3; read-out: t1/2 (converted)
Quantity Measured: half-life (h)
# value in h; strip the unit string

Tell us which half-life value is on record for Cc1c(C(=O)O)ccc2c3n(nc12)[C@@H]1[C@H](C3)N(CC2CC2)[C@@]2(C(=O)Nc3cc(Cl)ccc32)[C@H]1c1cccc(Cl)c1F 50.5
